Consider the following compounds and their measured Ratio Ki readings.
test-method-notes: Selectivity index, ratio of Ki for mouse kappa opioid receptor expressed in CHO cells to Ki for mouse mu opioid receptor expressed in CHO cells

[
  {
    "chem-smiles": "Cl.O=C(N[C@@H]1CC[C@@]2(O)[C@H]3Cc4ccc(O)c5c4[C@@]2(CCN3CC2CC2)[C@H]1O5)c1cccc2sccc12",
    "Ratio Ki": 4.7
  },
  {
    "chem-smiles": "Cl.O=C(N[C@@H]1CC[C@@]2(O)[C@H]3Cc4ccc(O)c5c4[C@@]2(CCN3CC2CC2)[C@H]1O5)c1csc2ccccc12",
    "Ratio Ki": 3.4
  },
  {
    "chem-smiles": "Cl.O=C(N[C@H]1CC[C@@]2(O)[C@H]3Cc4ccc(O)c5c4[C@@]2(CCN3CC2CC2)[C@H]1O5)c1ccc2ccoc2c1",
    "Ratio Ki": 5.7
  },
  {
    "chem-smiles": "Cl.O=C(N[C@@H]1CC[C@@]2(O)[C@H]3Cc4ccc(O)c5c4[C@@]2(CCN3CC2CC2)[C@H]1O5)c1ccc2ccoc2c1",
    "Ratio Ki": 1.7
  },
  {
    "chem-smiles": "Cl.O=C(N[C@H]1CC[C@@]2(O)[C@H]3Cc4ccc(O)c5c4[C@@]2(CCN3CC2CC2)[C@H]1O5)c1cccc2occc12",
    "Ratio Ki": 19.2
  }
]

Next up:
Q: Can you share its Ratio Ki? I mean this compound: "Cl.O=C(N[C@@H]1CC[C@@]2(O)[C@H]3Cc4ccc(O)c5c4[C@@]2(CCN3CC2CC2)[C@H]1O5)c1ccc2ccsc2c1"
Result: 1.3

* * *

Observed Ki values for Mu-type opioid receptor (Mus musculus, UniProt P42866) are listed in what follows.
Write the number in nM without appending the unit.

[
  {
    "chem-smiles": "Cl.O=C(N[C@@H]1CC[C@@]2(O)[C@H]3Cc4ccc(O)c5c4[C@@]2(CCN3CC2CC2)[C@H]1O5)c1ccc2sccc2c1",
    "assay-target": "Mu-type opioid receptor (Mus musculus, UniProt P42866)",
    "reported-measurement": 0.14
  },
  {
    "chem-smiles": "Cl.O=C(N[C@@H]1CC[C@@]2(O)[C@H]3Cc4ccc(O)c5c4[C@@]2(CCN3CC2CC2)[C@H]1O5)c1cccc2occc12",
    "assay-target": "Mu-type opioid receptor (Mus musculus, UniProt P42866)",
    "reported-measurement": 0.17
  },
  {
    "chem-smiles": "Cl.O=C(N[C@@H]1CC[C@@]2(O)[C@H]3Cc4ccc(O)c5c4[C@@]2(CCN3CC2CC2)[C@H]1O5)c1csc2ccccc12",
    "assay-target": "Mu-type opioid receptor (Mus musculus, UniProt P42866)",
    "reported-measurement": 0.14
  },
  {
    "chem-smiles": "Cl.O=C(N[C@H]1CC[C@@]2(O)[C@H]3Cc4ccc(O)c5c4[C@@]2(CCN3CC2CC2)[C@H]1O5)c1cccc2occc12",
    "assay-target": "Mu-type opioid receptor (Mus musculus, UniProt P42866)",
    "reported-measurement": 0.26
  },
  {
    "chem-smiles": "Cl.O=C(N[C@H]1CC[C@@]2(O)[C@H]3Cc4ccc(O)c5c4[C@@]2(CCN3CC2CC2)[C@H]1O5)c1cc2ccccc2o1",
    "assay-target": "Mu-type opioid receptor (Mus musculus, UniProt P42866)",
    "reported-measurement": 0.44
  },
  {
    "chem-smiles": "Cl.O=C(N[C@H]1CC[C@@]2(O)[C@H]3Cc4ccc(O)c5c4[C@@]2(CCN3CC2CC2)[C@H]1O5)c1ccc2ccsc2c1",
    "assay-target": "Mu-type opioid receptor (Mus musculus, UniProt P42866)",
    "reported-measurement": 0.28
  },
  {
    "chem-smiles": "Cl.O=C(N[C@@H]1CC[C@@]2(O)[C@H]3Cc4ccc(O)c5c4[C@@]2(CCN3CC2CC2)[C@H]1O5)c1cccc2ccsc12",
    "assay-target": "Mu-type opioid receptor (Mus musculus, UniProt P42866)",
    "reported-measurement": 0.19
  },
  {
    "chem-smiles": "Cl.O=C(N[C@@H]1CC[C@@]2(O)[C@H]3Cc4ccc(O)c5c4[C@@]2(CCN3CC2CC2)[C@H]1O5)c1ccc2occc2c1",
    "assay-target": "Mu-type opioid receptor (Mus musculus, UniProt P42866)",
    "reported-measurement": 0.15
  }
]

Q: Can you share its Ki? I mean this molecule: "Cl.O=C(N[C@@H]1CC[C@@]2(O)[C@H]3Cc4ccc(O)c5c4[C@@]2(CCN3CC2CC2)[C@H]1O5)c1ccc2ccsc2c1"
Result: 0.15

Q: Can you share its Ki? I mean this molecule: "Cl.O=C(N[C@H]1CC[C@@]2(O)[C@H]3Cc4ccc(O)c5c4[C@@]2(CCN3CC2CC2)[C@H]1O5)c1csc2ccccc12"
Result: 0.2

Q: Can you share its Ki? I mean this molecule: "Cl.O=C(N[C@@H]1CC[C@@]2(O)[C@H]3Cc4ccc(O)c5c4[C@@]2(CCN3CC2CC2)[C@H]1O5)c1ccc2ccoc2c1"
Result: 0.18

Q: Can you share its Ki? I mean this molecule: "Cl.O=C(N[C@H]1CC[C@@]2(O)[C@H]3Cc4ccc(O)c5c4[C@@]2(CCN3CC2CC2)[C@H]1O5)c1cc2ccccc2s1"
Result: 0.27

Q: Can you share its Ki? I mean this molecule: "Cl.O=C(N[C@@H]1CC[C@@]2(O)[C@H]3Cc4ccc(O)c5c4[C@@]2(CCN3CC2CC2)[C@H]1O5)c1cc2ccccc2o1"
Result: 0.16

Q: Can you share its Ki? I mean this molecule: "Cl.O=C(N[C@@H]1CC[C@@]2(O)[C@H]3Cc4ccc(O)c5c4[C@@]2(CCN3CC2CC2)[C@H]1O5)c1cccc2sccc12"
Result: 0.16

Q: Can you share its Ki? I mean this molecule: "Cl.O=C(N[C@H]1CC[C@@]2(O)[C@H]3Cc4ccc(O)c5c4[C@@]2(CCN3CC2CC2)[C@H]1O5)c1coc2ccccc12"
Result: 0.27

Q: Can you share its Ki? I mean this molecule: "Cl.O=C(N[C@H]1CC[C@@]2(O)[C@H]3Cc4ccc(O)c5c4[C@@]2(CCN3CC2CC2)[C@H]1O5)c1ccc2ccoc2c1"
Result: 0.29

Q: Can you share its Ki? I mean this molecule: "Cl.O=C(N[C@H]1CC[C@@]2(O)[C@H]3Cc4ccc(O)c5c4[C@@]2(CCN3CC2CC2)[C@H]1O5)c1ccc2sccc2c1"
Result: 0.39

Q: Can you share its Ki? I mean this molecule: "Cl.O=C(N[C@H]1CC[C@@]2(O)[C@H]3Cc4ccc(O)c5c4[C@@]2(CCN3CC2CC2)[C@H]1O5)c1ccc2occc2c1"
Result: 0.35

Q: Can you share its Ki? I mean this molecule: "Cl.O=C(N[C@H]1CC[C@@]2(O)[C@H]3Cc4ccc(O)c5c4[C@@]2(CCN3CC2CC2)[C@H]1O5)c1cccc2ccsc12"
Result: 0.31

Q: Can you share its Ki? I mean this molecule: "Cl.O=C(N[C@@H]1CC[C@@]2(O)[C@H]3Cc4ccc(O)c5c4[C@@]2(CCN3CC2CC2)[C@H]1O5)c1cc2ccccc2s1"
Result: 0.14

Q: Can you share its Ki? I mean this molecule: "Cl.O=C(N[C@@H]1CC[C@@]2(O)[C@H]3Cc4ccc(O)c5c4[C@@]2(CCN3CC2CC2)[C@H]1O5)c1coc2ccccc12"
Result: 0.13

Q: Can you share its Ki? I mean this molecule: "Cl.O=C(N[C@H]1CC[C@@]2(O)[C@H]3Cc4ccc(O)c5c4[C@@]2(CCN3CC2CC2)[C@H]1O5)c1cccc2sccc12"
Result: 0.26

* * *

Observed pKi values for Kappa-type opioid receptor (Mus musculus) are listed in what follows.
Notebook: values listed as pKi are -log10 of the concentration (mol/L).

Here's what some known entries look like.
[
  {
    "chem-smiles": "Cl.O=C(N[C@H]1CC[C@@]2(O)[C@H]3Cc4ccc(O)c5c4[C@@]2(CCN3CC2CC2)[C@H]1O5)c1cccc2sccc12",
    "reported-measurement": 8.63
  },
  {
    "chem-smiles": "Cl.O=C(N[C@@H]1CC[C@@]2(O)[C@H]3Cc4ccc(O)c5c4[C@@]2(CCN3CC2CC2)[C@H]1O5)c1ccc2occc2c1",
    "reported-measurement": 9.68
  },
  {
    "chem-smiles": "Cl.O=C(N[C@@H]1CC[C@@]2(O)[C@H]3Cc4ccc(O)c5c4[C@@]2(CCN3CC2CC2)[C@H]1O5)c1coc2ccccc12",
    "reported-measurement": 9.52
  },
  {
    "chem-smiles": "Cl.O=C(N[C@@H]1CC[C@@]2(O)[C@H]3Cc4ccc(O)c5c4[C@@]2(CCN3CC2CC2)[C@H]1O5)c1ccc2ccoc2c1",
    "reported-measurement": 9.52
  }
]

Q: For the record "Cl.O=C(N[C@@H]1CC[C@@]2(O)[C@H]3Cc4ccc(O)c5c4[C@@]2(CCN3CC2CC2)[C@H]1O5)c1cccc2ccsc12" , what value of pKi is listed for Kappa-type opioid receptor (Mus musculus)?
Result: 8.79

Q: For the record "Cl.O=C(N[C@@H]1CC[C@@]2(O)[C@H]3Cc4ccc(O)c5c4[C@@]2(CCN3CC2CC2)[C@H]1O5)c1cccc2ccoc12" , what value of pKi is listed for Kappa-type opioid receptor (Mus musculus)?
Result: 9.09

Q: For the record "Cl.O=C(N[C@H]1CC[C@@]2(O)[C@H]3Cc4ccc(O)c5c4[C@@]2(CCN3CC2CC2)[C@H]1O5)c1cc2ccccc2o1" , what value of pKi is listed for Kappa-type opioid receptor (Mus musculus)?
Result: 8.78

Q: For the record "Cl.O=C(N[C@@H]1CC[C@@]2(O)[C@H]3Cc4ccc(O)c5c4[C@@]2(CCN3CC2CC2)[C@H]1O5)c1cccc2occc12" , what value of pKi is listed for Kappa-type opioid receptor (Mus musculus)?
Result: 9.10

Q: For the record "Cl.O=C(N[C@H]1CC[C@@]2(O)[C@H]3Cc4ccc(O)c5c4[C@@]2(CCN3CC2CC2)[C@H]1O5)c1ccc2sccc2c1" , what value of pKi is listed for Kappa-type opioid receptor (Mus musculus)?
Result: 8.66

Q: For the record "Cl.O=C(N[C@@H]1CC[C@@]2(O)[C@H]3Cc4ccc(O)c5c4[C@@]2(CCN3CC2CC2)[C@H]1O5)c1cc2ccccc2s1" , what value of pKi is listed for Kappa-type opioid receptor (Mus musculus)?
Result: 9.70

Q: For the record "Cl.O=C(N[C@H]1CC[C@@]2(O)[C@H]3Cc4ccc(O)c5c4[C@@]2(CCN3CC2CC2)[C@H]1O5)c1csc2ccccc12" , what value of pKi is listed for Kappa-type opioid receptor (Mus musculus)?
Result: 8.62

Q: For the record "O=C(N[C@H]1CC[C@@]2(O)[C@H]3Cc4ccc(O)c5c4[C@@]2(CCN3CC2CC2)[C@H]1O5)c1cccc2ccoc12" , what value of pKi is listed for Kappa-type opioid receptor (Mus musculus)?
Result: 8.29

Q: For the record "Cl.O=C(N[C@H]1CC[C@@]2(O)[C@H]3Cc4ccc(O)c5c4[C@@]2(CCN3CC2CC2)[C@H]1O5)c1cc2ccccc2s1" , what value of pKi is listed for Kappa-type opioid receptor (Mus musculus)?
Result: 8.92
